Molecular target: Toll-like receptor 3 (Homo sapiens) (UniProt O15455)
Sequence (O15455 whole entry): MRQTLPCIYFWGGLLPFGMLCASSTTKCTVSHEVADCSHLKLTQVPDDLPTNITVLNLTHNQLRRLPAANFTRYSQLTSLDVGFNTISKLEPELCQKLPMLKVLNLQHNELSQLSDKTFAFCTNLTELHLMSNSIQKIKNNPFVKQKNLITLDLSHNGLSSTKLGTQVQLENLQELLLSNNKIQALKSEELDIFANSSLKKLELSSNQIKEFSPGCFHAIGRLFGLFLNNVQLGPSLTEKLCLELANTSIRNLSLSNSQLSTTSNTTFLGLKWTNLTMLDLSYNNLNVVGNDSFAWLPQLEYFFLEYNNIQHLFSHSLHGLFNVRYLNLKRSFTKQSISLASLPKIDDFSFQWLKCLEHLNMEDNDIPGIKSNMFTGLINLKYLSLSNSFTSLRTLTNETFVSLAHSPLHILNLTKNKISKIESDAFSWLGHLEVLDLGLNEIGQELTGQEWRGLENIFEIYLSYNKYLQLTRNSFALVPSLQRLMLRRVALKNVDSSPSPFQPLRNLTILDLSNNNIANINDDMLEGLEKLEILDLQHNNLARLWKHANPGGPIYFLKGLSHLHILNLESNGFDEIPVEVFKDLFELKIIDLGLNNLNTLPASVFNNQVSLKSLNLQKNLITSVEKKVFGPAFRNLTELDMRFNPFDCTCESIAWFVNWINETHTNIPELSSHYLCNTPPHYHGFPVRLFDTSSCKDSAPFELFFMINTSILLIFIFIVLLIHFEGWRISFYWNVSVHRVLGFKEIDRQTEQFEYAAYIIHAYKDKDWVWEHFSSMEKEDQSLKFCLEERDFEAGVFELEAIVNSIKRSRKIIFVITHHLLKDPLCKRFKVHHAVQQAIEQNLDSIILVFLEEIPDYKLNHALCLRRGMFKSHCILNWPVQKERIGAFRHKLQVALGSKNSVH
Assay: Agonist activity at human TLR3 expressed in HEK293 cells assessed as induction of NF-kB activation-mediated SEAP production at 25 uM after 24 hrs by HTS assay relative to control
Type: cell-based
Decide by fold change (FC): equal to or exceeding 2 means t, less means f.

Some entries whose results are on file:
compound: CC1(C)CC(O)c2cc(OCc3ccc(C(F)(F)F)cc3)c(OCc3ccc(C(F)(F)F)cc3)cc2O1 (stereo unspecified)
labelClass: t
--
compound: CCC1(CC)C=Cc2cc(OCc3ccc([N+](=O)[O-])cc3)c(OCc3ccc([N+](=O)[O-])cc3)cc2O1
labelClass: f
--
compound: CC1(C)C=Cc2cc(OCc3ccc([N+](=O)[O-])cc3)c(OCc3ccc([N+](=O)[O-])cc3)cc2O1
labelClass: t

# check: fold change (FC) of COc1ccc(COc2cc3c(cc2OCc2ccc(OC)c(F)c2)C(O)CC(C)(C)O3)cc1F (stereo unspecified) is greater than or equal to 2
f

Reported fold change (FC) at or above 2? `O=[N+]([O-])c1ccc(COc2cc3c(cc2OCc2ccc([N+](=O)[O-])cc2)OC2(C=C3)CCCCC2)cc1`
f

Record `COc1ccc(COc2cc3c(cc2OCc2ccc(OC)c(F)c2)OC(C)(C)C=C3)cc1F` ; criterion: fold change (FC) no lower than 2. Met?
f

---

// values below are reported pEC50
Molecular target: UniProt:O15455
Assay: Agonist activity at human TLR3 expressed in HEK293 cells assessed as induction of NF-kB activation-mediated SEAP production after 24 hrs by HTS assay
Here pEC50 is given on a logarithmic scale as minus log10 of the concentration in mol/L.

Known pEC50 results, listed for orientation:
compound: O=[N+]([O-])c1ccc(COc2cc3c(cc2OCc2ccc([N+](=O)[O-])cc2)OC2(C=C3)CCOCC2)cc1
targetOrSystem: UniProt:O15455
measuredValue: 5.32

compound: CC1(C)CC(O)c2cc(OCc3ccc([N+](=O)[O-])cc3)c(OCc3ccc([N+](=O)[O-])cc3)cc2O1 (stereo not drawn)
targetOrSystem: UniProt:O15455
measuredValue: 4.37

Please look at the following compound next.
Provide value of pEC50 for this record tested with UniProt:O15455: `CC1(C)C=Cc2cc(OCc3ccc([N+](=O)[O-])cc3)c(OCc3ccc([N+](=O)[O-])cc3)cc2O1`
4.65

---

fold change (FC) listing for selected molecules.
Target: UniProt:O15455
Assay: Agonist activity at human TLR3 expressed in HEK293 cells assessed as induction of NF-kB activation-mediated SEAP production at 25 uM after 24 hrs by HTS assay relative to control
Assay type: cell-based
API doc: respond with a numeric literal and nothing else, no unit.

// known answers, use as guide
molecule: CC1(C)CC(O)c2cc(OCc3ccc([N+](=O)[O-])cc3)c(OCc3ccc([N+](=O)[O-])cc3)cc2O1 (centres undefined)
targetOrSystem: UniProt:O15455
fold change (FC): 2.5
--
molecule: CC1(C)C=Cc2cc(OCc3ccc(F)c(F)c3)c(OCc3ccc(F)c(F)c3)cc2O1
targetOrSystem: UniProt:O15455
fold change (FC): 0.99
--
molecule: O=[N+]([O-])c1ccc(COc2cc3c(cc2OCc2ccc([N+](=O)[O-])cc2)OC2(C=C3)CCCCCC2)cc1
targetOrSystem: UniProt:O15455
fold change (FC): 1.07

We next turn to a different molecule, shown below.
Bench note: what fold change (FC) did `COc1ccc(COc2cc3c(cc2OCc2ccc(OC)c(F)c2)C(=O)CC(C)(C)O3)cc1F` show?
1.08
